- Conditions used: in DMF, 283.15 K
Measurement kind: solubility (mole fraction)
The response must contain the number and no unit.

What value of solubility (mole fraction) has been reported for the following molecule? CC1=NNC(=O)N(/N=C/c2cccnc2)C1
0.00347

* * *

- Conditions used: in isopropanol, 283.15 K
Measurement kind: solubility (mole fraction)
Lab note: write the figure by itself, no unit.

Which solubility (mole fraction) is listed for CC1=NNC(=O)N(/N=C/c2cccnc2)C1 ?
0.000232

* * *

- Conditions used: in 1,4-dioxane, 293.15 K
Measurement kind: solubility (mole fraction)
Please give only the number in your answer, with no unit.

Query (compound): CC1=NNC(=O)N(/N=C/c2cccnc2)C1 ; field requested: solubility (mole fraction)
0.00054

* * *

- Conditions used: in isopropanol, 298.15 K
Measurement kind: solubility (mole fraction)

What does the data say about its solubility (mole fraction)? Entry: CC1=NNC(=O)N(/N=C/c2cccnc2)C1
0.000391

* * *

- Conditions used: in DMF, 313.15 K
Measurement kind: solubility (mole fraction)
Hey, just send me the number, nothing else.

What value of measured solubility (mole fraction) is listed for CC1=NNC(=O)N(/N=C/c2cccnc2)C1 ?
0.00738

* * *

- Conditions used: in n-butanol, 303.15 K
Measurement kind: solubility (mole fraction)
Please respond with just the number, no unit label.

# get_value(readout='solubility (mole fraction)', item= CC1=NNC(=O)N(/N=C/c2cccnc2)C1 )
0.000389

* * *

- Conditions used: in DMF, 308.15 K
Measurement kind: solubility (mole fraction)
Format: numeric value only, no unit, no commentary.

Which solubility (mole fraction) is listed for CC1=NNC(=O)N(/N=C/c2cccnc2)C1 ?
0.00656

* * *

- Conditions used: in DMSO, 313.15 K
Measurement kind: solubility (mole fraction)

Give its solubility (mole fraction) value. Item: CC1=NNC(=O)N(/N=C/c2cccnc2)C1
0.0126

* * *

- Conditions used: in DMF, 293.15 K
Measurement kind: solubility (mole fraction)
Provide a numeric answer; units are not to be included.

What solubility (mole fraction) value was documented for this compound, CC1=NNC(=O)N(/N=C/c2cccnc2)C1 ?
0.00451

* * *

- Conditions used: in DMSO, 308.15 K
Measurement kind: solubility (mole fraction)
Reply briefly: the number, and no unit.

Entry CC1=NNC(=O)N(/N=C/c2cccnc2)C1 has what solubility (mole fraction)?
0.0112

* * *

- Conditions used: in DMF, 303.15 K
Measurement kind: solubility (mole fraction)
Form rule: numeric answer, no unit written next to it.

Would you mind telling me what solubility (mole fraction) value was observed for CC1=NNC(=O)N(/N=C/c2cccnc2)C1 ?
0.00582

* * *

- Conditions used: in NMP, 288.15 K
Measurement kind: solubility (mole fraction)
Provide a numeric answer; units are not to be included.

solubility (mole fraction) for CC1=NNC(=O)N(/N=C/c2cccnc2)C1 ?
0.0022

* * *

- Conditions used: in n-butanol, 298.15 K
Measurement kind: solubility (mole fraction)
Answer with a number only.

Please look up its solubility (mole fraction): CC1=NNC(=O)N(/N=C/c2cccnc2)C1
0.000332

* * *

- Conditions used: in NMP, 308.15 K
Measurement kind: solubility (mole fraction)
// response body must contain only the number

// returns reported solubility (mole fraction) for input CC1=NNC(=O)N(/N=C/c2cccnc2)C1
0.00389

* * *

- Conditions used: in isopropanol, 293.15 K
Measurement kind: solubility (mole fraction)

Would you mind telling me what solubility (mole fraction) value was observed for CC1=NNC(=O)N(/N=C/c2cccnc2)C1 ?
0.000331

* * *

- Conditions used: in NMP, 298.15 K
Measurement kind: solubility (mole fraction)
The response must contain the number and no unit.

Find the recorded solubility (mole fraction) belonging to CC1=NNC(=O)N(/N=C/c2cccnc2)C1 and report it.
0.00295

* * *

- Conditions used: in n-butanol, 283.15 K
Measurement kind: solubility (mole fraction)
Could you respond with only the numeric value?

Reported solubility (mole fraction), compound CC1=NNC(=O)N(/N=C/c2cccnc2)C1 : ____
0.00019

* * *

- Conditions used: in n-butanol, 293.15 K
Measurement kind: solubility (mole fraction)
Field format: numeric only.

# lookup: solubility (mole fraction) of CC1=NNC(=O)N(/N=C/c2cccnc2)C1
0.000277

* * *

- Conditions used: in DMSO, 298.15 K
Measurement kind: solubility (mole fraction)
Quick one: just the number, no unit, thanks!

Any idea what its solubility (mole fraction) is? The compound is CC1=NNC(=O)N(/N=C/c2cccnc2)C1
0.00862

* * *

- Conditions used: in n-butanol, 318.15 K
Measurement kind: solubility (mole fraction)
Reply with the value as a number alone.

Quick one: solubility (mole fraction) for CC1=NNC(=O)N(/N=C/c2cccnc2)C1 ?
0.000635
